measuredTarget: T1, TNFR1 (Homo sapiens, UniProt P19438)
T1 chain: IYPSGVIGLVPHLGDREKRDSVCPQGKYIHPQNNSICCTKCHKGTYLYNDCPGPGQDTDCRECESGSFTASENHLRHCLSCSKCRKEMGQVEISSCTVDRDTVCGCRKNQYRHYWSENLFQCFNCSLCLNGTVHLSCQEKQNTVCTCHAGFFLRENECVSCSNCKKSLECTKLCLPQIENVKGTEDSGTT
testMethodNotes: yeast display SC50
apparent Kd (screen) strictly less than 3 nM = t. Otherwise f.

binder | assignedClass
A55M (designed binder) SMEEEVEKAAKEYEKKKKEAIEKHLEKLKAKDKEAAERFLKELEEAAKEYAKDEMKTMSEEEAKRRAKKYKEKVLLSELSEEEQKEIKEAEEKLVRTILKYVEEAAK | t
K56F (designed binder) SMEEEVEKAAKEYEKKKKEAIEKHLEKLKAKDKEAAERFLKELEEAAKEYAKDEAFTMSEEEAKRRAKKYKEKVLLSELSEEEQKEIKEAEEKLVRTILKYVEEAAK | f
L43V (designed binder) SMEEEVEKAAKEYEKKKKEAIEKHLEKLKAKDKEAAERFLKEVEEAAKEYAKDEAKTMSEEEAKRRAKKYKEKVLLSELSEEEQKEIKEAEEKLVRTILKYVEEAAK | t
L28P (designed binder) SMEEEVEKAAKEYEKKKKEAIEKHLEKPKAKDKEAAERFLKELEEAAKEYAKDEAKTMSEEEAKRRAKKYKEKVLLSELSEEEQKEIKEAEEKLVRTILKYVEEAAK | f

Taken from paper PMC12416549.
